Test system: nude mice, LX-1 lung xenograft intrarenal, tumor weight T/C
Assay: NCI In Vivo Anticancer Drug Screen. Data for tumor model Human Lung LX-1 Xenograft (intrarenal inoculation) in NU/NU Swiss (nude) mice
Conditions: endpoint: mean tumor weight change; dose: 50.0 mg/kg/injection; schedule: Q01DX010 (sc); vehicle: Klucel (hydroxypropylcellulose) (HPC); higher = larger tumour
Records with an inconclusive call do not appear.
Listed below: T/C values for each entry.

Some compounds with known T/C results, for comparison:
COMPOUND: O=C([CH-]C(=O)C(F)(F)F)c1ccccc1.O=C([CH-]C(=O)C(F)(F)F)c1ccccc1.O=C([CH-]C(=O)C(F)(F)F)c1ccccc1.O=C([CH-]C(=O)C(F)(F)F)c1ccccc1.[Eu+3].c1ccncc1
ASSAY TARGET: nude mice, LX-1 lung xenograft intrarenal, tumor weight T/C
T/C: 85 % of control
//
COMPOUND: NC(CSC(c1ccccc1)(c1ccccc1)c1ccccc1)C(=O)O (stereo not given)
ASSAY TARGET: nude mice, LX-1 lung xenograft intrarenal, tumor weight T/C
T/C: 155 % of control
//
COMPOUND: CCCCc1ccc(-n2c(C)c(COC(=O)NC)c(COC(=O)NC)c2C)cc1
ASSAY TARGET: nude mice, LX-1 lung xenograft intrarenal, tumor weight T/C
T/C: 100 % of control

## Input State, in one line, measured T/C of COC1C(O)C(C)OC(OC2C(Oc3cccc4c(O)c5c(=O)oc6ccc(C)c7c(=O)oc(c34)c5c67)OC(C)C(O)C2O)C1O (stereo not given)
## Output 84 % of control

## Input State, in one line, measured T/C of O=c1[nH]c(=O)n([C@H]2CCCO2)cc1F
## Output 37 % of control

###

Test system: nude mice, LX-1 lung xenograft intrarenal, tumor weight T/C
Test: NCI In Vivo Anticancer Drug Screen. Data for tumor model Human Lung LX-1 Xenograft (intrarenal inoculation) in NU/NU Swiss (nude) mice
Conditions: endpoint: mean tumor weight change; dose: 2400.0 mg/kg/injection; schedule: Q04DX003 (sc); vehicle: Klucel (hydroxypropylcellulose) (HPC); higher = larger tumour
Results filed as inconclusive are left out.
Listed below: T/C values for each entry.

MOLECULE: Cc1ccc(NCC2(/N=C/c3ccccc3)OC(CO)C(O)C2O)cc1 (centres undefined)
T/C: 98 % of control

## Input State, in one line, measured T/C of CCc1c(CC(=O)O)c2cc(C)ccc2n1Cc1ccc(Cl)cc1
## Output 50 % of control

## Input State, in one line, measured T/C of CSc1ncc2ncn(C3OC(CO)C(O)C3O)c2n1 (centres undefined)
## Output 53 % of control

## Input State, in one line, measured T/C of O=c1[nH]cnc2n[nH]nc12
## Output 27 % of control

## Input State, in one line, measured T/C of CCCCCCCCCCCCCCC/C([O-])=N/[N+](C)(C)CC(C)O (centres undefined)
## Output 69 % of control

## Input State, in one line, measured T/C of C[C@]12CC[C@@H]3c4ccc(O)cc4CC[C@H]3[C@@H]1CC[C@@H]2O
## Output 53 % of control

## Input State, in one line, measured T/C of Cc1ccc(C2NC(=S)N3C(c4ccc(C)cc4)NC(=S)N23)cc1 (centres undefined)
## Output 65 % of control

## Input State, in one line, measured T/C of CCCCCC(=O)O[C@]1(C(C)=O)CC[C@H]2[C@@H]3CCC4=CC(=O)CC[C@]4(C)[C@H]3CC[C@@]21C
## Output 84 % of control

## Input State, in one line, measured T/C of Oc1c(Cl)cc(C(c2cc(Cl)c(O)c(Cl)c2)C(c2cc(Cl)c(O)c(Cl)c2)c2cc(Cl)c(O)c(Cl)c2)cc1Cl
## Output 66 % of control

Where do the numbers come from? From PubChem BioAssay AID264.
